Test system: SET-2 cells (JAK2 V617F)
Assay: Inhibition of cell proliferation by MTT experiment, SET-2
Type: cell-based
Details: Homo sapiens, SET-2; MTT, 72 h; read-out: IC50 value on cell proliferation inhibition, SET-2 (V617F)
pIC50: −log10 of the molar value.
Documented pIC50 across a set of compounds

Solved entries (count: 5):
record-smiles: CCCn1cc(-c2nc(Nc3ccc(N4CCN(C)CC4)c(F)c3)ncc2F)cn1
measured-target: SET-2 cells (JAK2 V617F)
pIC50: < 6.00
--
record-smiles: CCCN1CCN(CCN(C)C2CCN(c3ccc(Nc4ncc(C)c(-c5cnn(C(C)C)c5)n4)cc3F)CC2)CC1
measured-target: SET-2 cells (JAK2 V617F)
pIC50: 6.00 to 7.00
--
record-smiles: CCOCCN(C)C1CCN(c2ccc(Nc3ncc(C)c(-c4cnn(C(C)C)c4)n3)cc2F)CC1
measured-target: SET-2 cells (JAK2 V617F)
pIC50: 6.00 to 7.00
--
record-smiles: CCCCN1CCN(c2ccc(Nc3ncc(F)c(-c4cnn(C(C)C)c4)n3)nc2)CC1
measured-target: SET-2 cells (JAK2 V617F)
pIC50: 6.00 to 7.00
--
record-smiles: Cc1cnc(Nc2ccc(NS(=O)(=O)c3ccc(C(F)(F)F)cc3)c(F)c2)nc1-c1cnn(C(C)C)c1
measured-target: SET-2 cells (JAK2 V617F)
pIC50: 6.00 to 7.00

In: Form field: reported pIC50 of `Cc1cnc(Nc2ccc(N3CCC4(CC3)CN(C(C)C)C4)c(F)c2)nc1-c1cnn(C(C)C)c1`
Out: 7.00 to 8.00

In: Name the reported pIC50 value associated with the compound `CC(C)n1cc(-c2nc(Nc3cccc(N4CCN(C)CC4)c3)ncc2F)cn1`
Out: 6.00 to 7.00

In: Query: pIC50; subject: `Cc1cnc(Nc2ccc(N3CCC4(CC3)CNC4)c(F)c2)nc1-c1cnn(C(C)C)c1`
Out: 6.00 to 7.00

----------
Tested on: SET-2 cells (JAK2 V617F)
Assay: Inhibition of cell proliferation by MTT experiment, SET-2
Type: cell-based
Details: Homo sapiens, SET-2; MTT, 72 h; read-out: IC50 value on cell proliferation inhibition, SET-2 (V617F)
# IC50 values compiled below

In: Sample `COc1cc(Nc2ncc(F)c(-c3cnn(C(C)C)c3)n2)ccc1N1CCC(N(C)C)CC1` — what was its IC50?
Out: 0.1 to 1 µM

In: Could you tell me which IC50 is on file for `Cc1cnc(Nc2ccc(CCNC(=O)/C=C/C(=O)c3ccccc3)cc2)nc1-c1cnn(C(C)C)c1` ?
Out: > 1 µM

In: If you can, please state the reported IC50 value of `Cc1cnc(Nc2ccc(N3CCN(C(=O)CO)CC3)c(F)c2)nc1-c1cnn(C(C)C)c1` .
Out: 0.1 to 1 µM

In: Give its IC50 value. Item: `Cc1cnc(Nc2ccc(N3CCC(N(C)C)CC3)c(F)c2)nc1-c1cnn(C(C)C)c1`
Out: 0.1 to 1 µM

----------
Target: JAK2 (Homo sapiens)
Construct: purchased Eurofins
Sequence (O60674 whole entry): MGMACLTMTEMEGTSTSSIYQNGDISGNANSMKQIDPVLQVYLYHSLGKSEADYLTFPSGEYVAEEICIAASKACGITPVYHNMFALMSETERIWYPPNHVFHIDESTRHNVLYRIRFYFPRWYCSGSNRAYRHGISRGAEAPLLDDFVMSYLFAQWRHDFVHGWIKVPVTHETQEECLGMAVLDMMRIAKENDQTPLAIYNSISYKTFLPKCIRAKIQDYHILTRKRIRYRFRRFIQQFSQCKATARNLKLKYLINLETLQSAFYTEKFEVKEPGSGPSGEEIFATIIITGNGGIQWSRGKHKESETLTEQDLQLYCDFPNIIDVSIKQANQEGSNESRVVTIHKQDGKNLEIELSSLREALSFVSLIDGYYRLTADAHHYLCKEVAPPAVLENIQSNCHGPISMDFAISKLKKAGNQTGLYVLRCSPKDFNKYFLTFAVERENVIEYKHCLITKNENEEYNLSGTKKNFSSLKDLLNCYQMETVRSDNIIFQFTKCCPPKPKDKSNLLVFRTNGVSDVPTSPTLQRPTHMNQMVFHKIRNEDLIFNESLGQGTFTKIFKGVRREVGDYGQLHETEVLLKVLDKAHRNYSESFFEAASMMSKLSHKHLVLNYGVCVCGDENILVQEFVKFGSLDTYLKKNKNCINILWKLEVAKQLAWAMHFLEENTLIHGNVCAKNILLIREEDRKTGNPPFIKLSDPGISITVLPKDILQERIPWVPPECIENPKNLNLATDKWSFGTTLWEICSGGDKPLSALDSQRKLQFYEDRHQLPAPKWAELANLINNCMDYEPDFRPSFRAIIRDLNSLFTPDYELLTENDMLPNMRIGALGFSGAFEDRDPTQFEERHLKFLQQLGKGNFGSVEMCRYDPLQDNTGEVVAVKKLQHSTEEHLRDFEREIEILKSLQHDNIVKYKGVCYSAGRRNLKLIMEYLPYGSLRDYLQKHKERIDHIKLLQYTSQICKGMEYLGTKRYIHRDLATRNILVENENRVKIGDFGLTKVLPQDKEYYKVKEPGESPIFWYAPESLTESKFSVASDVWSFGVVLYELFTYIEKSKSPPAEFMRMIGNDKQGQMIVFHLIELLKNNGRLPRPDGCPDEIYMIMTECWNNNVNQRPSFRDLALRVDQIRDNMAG
Experiment: In vitro kinase activity experiment, JAK2
Format: biochemical
Conditions: inhibition rate of enzyme at 500 nM; measured by Eurofins
In this section we review reported Kinase activity @ 500 nM (%) JAK2 values for a set of compounds.
Use % as the unit, but write only the number.

Worked examples follow.
compound: CCCn1cc(-c2nc(Nc3ccc(N4CCN(CC)CC4)c(F)c3)ncc2F)cn1 [CLJ-9]
measured-target: JAK2 (Homo sapiens)
unit-of-measurement: %
Kinase activity @ 500 nM (%) JAK2: 27

compound: Cc1cnc(Nc2ccc(N3CCC(N(C)CCN4CCN(C)CC4)CC3)c(F)c2)nc1-c1cnn(C(C)C)c1 [CLJ-56]
measured-target: JAK2 (Homo sapiens)
unit-of-measurement: %
Kinase activity @ 500 nM (%) JAK2: 99

compound: CCCCCCN1CC2(CCN(c3ccc(Nc4ncc(C)c(-c5cnn(C(C)C)c5)n4)cc3F)CC2)C1 [CLJ-74]
measured-target: JAK2 (Homo sapiens)
unit-of-measurement: %
Kinase activity @ 500 nM (%) JAK2: 98

compound: Cc1cnc(Nc2ccc(N3CCC(N(C)C)CC3)c(F)c2)nc1-c1cnn(C(C)C)c1 [CLJ-38]
measured-target: JAK2 (Homo sapiens)
unit-of-measurement: %
Kinase activity @ 500 nM (%) JAK2: 93

compound: Cc1cnc(Nc2ccc(N3CCC(N(C)CCCCCO)CC3)c(F)c2)nc1-c1cnn(C(C)C)c1 [CLJ-47]
measured-target: JAK2 (Homo sapiens)
unit-of-measurement: %
Kinase activity @ 500 nM (%) JAK2: 93

compound: CCN(CCN1CCOCC1)C1CCN(c2ccc(Nc3ncc(C)c(-c4cnn(C(C)C)c4)n3)cc2F)CC1 [CLJ-59]
measured-target: JAK2 (Homo sapiens)
unit-of-measurement: %
Kinase activity @ 500 nM (%) JAK2: 98

compound: Cc1cnc(Nc2ccc(N3CCC(N(C)CC4CCCO4)CC3)c(F)c2)nc1-c1cnn(C(C)C)c1 (centres unmarked) [CLJ-53]
measured-target: JAK2 (Homo sapiens)
unit-of-measurement: %
Kinase activity @ 500 nM (%) JAK2: 100

Then there is this compound:
In: For the compound shown here, Cc1cnc(Nc2ccc(N3CCC(CN(C)CCN4CCOCC4)CC3)c(F)c2)nc1-c1cnn(C(C)C)c1 [CLJ-61] , give the reported Kinase activity @ 500 nM (%) JAK2.
Out: 99
